B1: library; a variant is named by its letters at N, in order (parent)
chain: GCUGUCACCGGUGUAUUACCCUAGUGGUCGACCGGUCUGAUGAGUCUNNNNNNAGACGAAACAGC

Variants of: B1
Assay: FACS-Seq fitted mean relative fluorescence mCherry/BFP with ligand (log10 relative fluorescence); ligand: hypoxanthine (xanthine aptamer); ligand concentration (+) FACS-Seq: 5 mM; higher = higher reporter protein expression
Settings: HEK293T, ligand present: yes
List of FACS-Seq fitted mean (log10) values.
OBSERVABLE: FACS-Seq fitted mean (log10)

- AUGGAG: 0.604
- AUGGGA: 0.592
- UAUUGU: 0.411
- CCGUGU: 0.616
- AAACGA: 0.59
